Assign logIC50 to each entry below.
Target: Fe(3+)-Zn(2+) purple acid phosphatase (Phaseolus vulgaris) (UniProt P80366)
Sequence (P80366 whole entry): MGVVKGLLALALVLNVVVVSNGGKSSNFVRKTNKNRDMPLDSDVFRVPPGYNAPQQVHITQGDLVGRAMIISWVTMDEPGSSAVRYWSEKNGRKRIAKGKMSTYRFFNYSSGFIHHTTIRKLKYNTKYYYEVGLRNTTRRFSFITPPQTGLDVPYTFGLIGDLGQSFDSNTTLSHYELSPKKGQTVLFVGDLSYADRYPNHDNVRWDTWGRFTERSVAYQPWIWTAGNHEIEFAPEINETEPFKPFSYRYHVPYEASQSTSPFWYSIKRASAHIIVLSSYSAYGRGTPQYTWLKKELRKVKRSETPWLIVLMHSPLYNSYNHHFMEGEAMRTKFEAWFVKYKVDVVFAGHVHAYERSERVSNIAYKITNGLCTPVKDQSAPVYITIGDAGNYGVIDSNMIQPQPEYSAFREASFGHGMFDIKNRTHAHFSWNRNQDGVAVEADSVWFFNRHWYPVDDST
Assay: Inhibition of red kidney bean PAP at pH 6.2
Give bare numbers.

Example compounds with recorded logIC50:
CCCCCCOC(c1cccc2ccccc12)P(=O)(O)O (racemic) : 0
CCCCCCCCCCOC(c1cccc2ccccc12)P(=O)(O)O (racemic) : -2.1
CCCCCCCCOC(c1cccc2ccccc12)P(=O)(O)O (racemic) : -1

Kindly review the next compound as well.
## Input State its logIC50: O=P(O)(O)C(O)c1cccc2ccccc12 (stereo not given)
## Output 0.7
